Hi there, I'd appreciate the recorded pKd for every entry that follows.
Target: T1, cynomolgus monkey ENPP3 (cynomolgus monkey, UniProt A0A2K5TKP4 46-874)
T1 construct: also called cyno ENPP3
T1 sequence: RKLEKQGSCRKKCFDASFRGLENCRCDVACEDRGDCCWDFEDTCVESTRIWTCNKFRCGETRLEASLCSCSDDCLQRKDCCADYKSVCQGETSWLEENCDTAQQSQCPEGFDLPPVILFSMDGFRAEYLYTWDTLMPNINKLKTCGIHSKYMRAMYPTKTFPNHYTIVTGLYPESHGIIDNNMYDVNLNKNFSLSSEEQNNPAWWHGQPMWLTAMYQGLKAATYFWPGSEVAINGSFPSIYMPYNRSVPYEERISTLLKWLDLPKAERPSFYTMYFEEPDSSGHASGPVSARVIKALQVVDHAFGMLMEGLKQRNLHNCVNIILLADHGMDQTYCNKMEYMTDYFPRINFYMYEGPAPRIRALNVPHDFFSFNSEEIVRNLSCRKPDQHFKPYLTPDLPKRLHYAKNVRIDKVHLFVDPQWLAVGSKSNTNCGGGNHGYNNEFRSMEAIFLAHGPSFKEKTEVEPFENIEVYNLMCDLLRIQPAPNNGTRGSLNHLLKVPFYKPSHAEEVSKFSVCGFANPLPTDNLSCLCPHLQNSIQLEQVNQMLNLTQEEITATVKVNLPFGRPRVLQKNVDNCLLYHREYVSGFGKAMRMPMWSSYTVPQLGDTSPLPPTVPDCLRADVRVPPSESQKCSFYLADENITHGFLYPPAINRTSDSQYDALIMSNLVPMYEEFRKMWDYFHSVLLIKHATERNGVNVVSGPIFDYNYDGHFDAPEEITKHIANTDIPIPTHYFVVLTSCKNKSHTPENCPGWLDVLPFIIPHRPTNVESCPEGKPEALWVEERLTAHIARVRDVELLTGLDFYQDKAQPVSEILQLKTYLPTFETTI
Test: binding affinity to cyno ENPP3; method not stated; biphasic
pKd: −log10 of the molar value.

Measured pKd, NPP3B98 (antibody, V domains shown, mAb from Ablexis Kappa mice) VH: QVQLQESGPGLVKPSETLSLTCTVSGGSISNYYWSWIRQPAGKGLEWIGRIYASGSTNYNPSLKSRVTMSVDTSKNQFSLRLRSVTATDTAVYYCAREGYSSTLYDNAFDFWGQGTMVTVSS VL: DIQMTQSPSSVSASVGGRVTITCRASQGISTWLAWYQQKPGKAPKLLIYAASSLQSGVPSRFSGSGSGTDFTLTISSLQPEDFATYYCQQANSFPLTFGGGTKVEIK : ~9.00

For reference, reported pKd for NPP3B56 (antibody, V domains shown, mAb from Ablexis Kappa mice) VH: EVQLVESGGGRVKPGGSLRLSCAASGFTFSDYSMNWVRQAPGKGLEWVSSISSISSYVKYADSVKGRFTMSRDNAKNSLFLQMNSLRDEDMAVYYCARGHYFDYWGQGTLVTVSS VL: EIVMTQSPATLSVSPGERATLSCRASQSVSSNLAWYQQKPGLAPRLLIYGASTRATGIPARFSGSGSGTEFTLTISSLQSEDFAVYYCQQYNNWPRTFGQGTKVEIK stands at ~8.70

Entry NPP3B86 (antibody, V domains shown, mAb from Ablexis Kappa mice) VH: QVQLVQSGAEVKKPGASVKVSCKASGYTVTNYYIFWVRQAPGQGLEWMGWINPNSGGTNYAQKFQGRVTMTRDTSINTAYMKLSRLGSDDTAVYYCARGGYSGYALSSHYGMDVWGQGTMVTVSS VL: EIVLTQSPGTLSLSPGERATLSCRASQSVSSSYLAWYQQKPGQAPRLLIYDASSRATGIPDRFSGSGSGTDFTLIISRLEPEDFAVYYCQQYDSSPLTFGGGTKVEIK — recorded pKd = ~8.30
